Where do these numbers come from? They come from patent US20260297542A1.

Item-by-item account of inhibition at 10 ppm
system_tested: AtPPO1 S305L G404A L479N (SEQ ID NO.137) (Arabidopsis thaliana, UniProt P55826, G404A/L479N/S305L)
Construct: made in house; host or cells: E. coli BL21 (DE3) hemG, crude extract
measurement_notes: fluorescent Protoporphyrinogen Oxidase assay, crude extract
Type: biochemical
measurement_parameters: read-out: percentage inhibition
recorded_endpoint: inhibition at 10 ppm (%)

1) CCOC(=O)C1(C)CC(c2cc(-n3c(=O)cc(C(F)(F)F)n(C)c3=O)c(F)cc2Cl)=NO1 (centres unmarked) [Herbicide C] : 100
2) CCOC(=O)[C@]1(C)CC(c2cc(-n3c(=O)n(C)c(=S)n(C)c3=O)c(F)cc2Cl)=NO1 [Herbicide D] : 98
3) CCOC(=O)COc1ncccc1Oc1cc(-n2c(=O)cc(C(F)(F)F)n(C)c2=O)c(F)cc1Cl [Herbicide A, epyrifenacil] : 100
4) C#CCN1C(=O)C(F)(F)Oc2cc(F)c(-n3c(=O)n(C)c(=S)n(C)c3=O)cc21 [Herbicide B, trifludimoxazin] : 100
5) CC(C)N(C)S(=O)(=O)NC(=O)c1cc(-n2c(=O)cc(C(F)(F)F)n(C)c2=O)c(F)cc1Cl [Herbicide E, saflufenacil] : 100

---

system_tested: His-TEV-AtPPO1 ΔcTP V002 (SEQ ID NO: 373) (Arabidopsis thaliana, UniProt P55826, L479M/S305L/Y426V)
Construct: with cTPs removed; made in house; host or cells: E. coli BL21 (DE3), His GraviTrap, partially purified
measurement_notes: PPO fluorescence IC50 assay, partially purified enzyme
Type: biochemical
pIC50: −log10 of the molar value.
# binarize pIC50: threshold 6 inclusive, high side label 1, low side label 0

1) CCOC(=O)[C@]1(C)CC(c2cc(-n3c(=O)n(C)c(=S)n(C)c3=O)c(F)cc2Cl)=NO1 [Herbicide D] : label 1
2) C#CCN(C)c1c(C#N)cnn1-c1nn2c(c1Cl)CCCC2 : label 0
3) CS(=O)(=O)NC(=O)c1cc(Oc2ccc(C(F)(F)F)cc2Cl)ccc1[N+](=O)[O-] : label 1
4) C#CCN1C(=O)C(F)(F)Oc2cc(F)c(-n3c(=O)n(C)c(=S)n(C)c3=O)cc21 [Herbicide B, trifludimoxazin] : label 1
5) C#CCN1C(=O)COc2cc(F)c(N3C(=O)C4=C(CCCC4)C3=O)cc21 : label 1
6) CC(C)Oc1cc(-n2nc(C(C)(C)C)oc2=O)c(Cl)cc1Cl : label 0
7) CCOC(=O)COc1ncccc1Oc1cc(-n2c(=O)cc(C(F)(F)F)n(C)c2=O)c(F)cc1Cl [Herbicide A, epyrifenacil] : label 1
8) CCOC(=O)COc1cc(-c2nn(C)c(OC(F)F)c2Cl)c(F)cc1Cl : label 1
9) C=CCOC(=O)C(C)(C)OC(=O)c1cc(-n2c(=O)cc(C(F)(F)F)n(C)c2=O)ccc1Cl : label 1
10) C#CCOc1cc(-n2nc3n(c2=O)CCCC3)c(Cl)cc1Cl : label 1
11) CCOC(=O)C1(C)CC(c2cc(-n3c(=O)cc(C(F)(F)F)n(C)c3=O)c(F)cc2Cl)=NO1 (stereo not drawn) [Herbicide C] : label 1

---

system_tested: AtPPO1 S305L G404A L479N (SEQ ID NO.137) (Arabidopsis thaliana, UniProt P55826, G404A/L479N/S305L)
Construct: made in house; host or cells: E. coli BL21 (DE3) hemG, crude extract
measurement_notes: fluorescent Protoporphyrinogen Oxidase assay, crude extract
Assay type: biochemical
measurement_parameters: read-out: percentage inhibition
Item-by-item account of inhibition at 100 ppm
recorded_endpoint: inhibition at 100 ppm (%)

1) CCOC(=O)[C@]1(C)CC(c2cc(-n3c(=O)n(C)c(=S)n(C)c3=O)c(F)cc2Cl)=NO1 [Herbicide D] : 100
2) CCOC(=O)COc1ncccc1Oc1cc(-n2c(=O)cc(C(F)(F)F)n(C)c2=O)c(F)cc1Cl [Herbicide A, epyrifenacil] : 100
3) CCOC(=O)C1(C)CC(c2cc(-n3c(=O)cc(C(F)(F)F)n(C)c3=O)c(F)cc2Cl)=NO1 (centres unmarked) [Herbicide C] : 100
4) C#CCN1C(=O)C(F)(F)Oc2cc(F)c(-n3c(=O)n(C)c(=S)n(C)c3=O)cc21 [Herbicide B, trifludimoxazin] : 100
5) CC(C)N(C)S(=O)(=O)NC(=O)c1cc(-n2c(=O)cc(C(F)(F)F)n(C)c2=O)c(F)cc1Cl [Herbicide E, saflufenacil] : 96

---

system_tested: AtPPO1 S305L Y426V L479M (SEQ ID NO.131) (Arabidopsis thaliana, UniProt P55826, L479M/S305L/Y426V)
Construct: made in house; host or cells: E. coli BL21 (DE3) hemG, crude extract
Sequence (P55826 35-537 S305L/Y426V/L479M): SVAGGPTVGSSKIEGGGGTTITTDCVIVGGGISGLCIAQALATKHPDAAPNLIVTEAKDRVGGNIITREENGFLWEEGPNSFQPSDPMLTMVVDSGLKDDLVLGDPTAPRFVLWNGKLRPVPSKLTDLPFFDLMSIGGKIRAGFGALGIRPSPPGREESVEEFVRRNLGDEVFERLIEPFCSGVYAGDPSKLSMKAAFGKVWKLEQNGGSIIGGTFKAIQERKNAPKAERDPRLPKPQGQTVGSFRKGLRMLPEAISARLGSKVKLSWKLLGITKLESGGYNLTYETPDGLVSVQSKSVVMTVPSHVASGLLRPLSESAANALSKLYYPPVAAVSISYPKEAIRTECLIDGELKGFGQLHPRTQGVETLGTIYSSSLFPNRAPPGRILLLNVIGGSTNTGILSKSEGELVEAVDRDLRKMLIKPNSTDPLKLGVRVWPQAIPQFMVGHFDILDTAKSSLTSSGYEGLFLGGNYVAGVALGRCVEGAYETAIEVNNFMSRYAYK
measurement_notes: fluorescent Protoporphyrinogen Oxidase assay, crude extract
Assay type: biochemical
measurement_parameters: read-out: percentage inhibition
recorded_endpoint: inhibition at 1 ppm (%)

1) CCOC(=O)[C@]1(C)CC(c2cc(-n3c(=O)n(C)c(=S)n(C)c3=O)c(F)cc2Cl)=NO1 [Herbicide D] : 46
2) CC(C)N(C)S(=O)(=O)NC(=O)c1cc(-n2c(=O)cc(C(F)(F)F)n(C)c2=O)c(F)cc1Cl [Herbicide E, saflufenacil] : 28
3) C#CCN1C(=O)C(F)(F)Oc2cc(F)c(-n3c(=O)n(C)c(=S)n(C)c3=O)cc21 [Herbicide B, trifludimoxazin] : 96

---

Item-by-item account of inhibition at 100 ppm
system_tested: WT (SEQ ID NO.1) AtPPO1 (Arabidopsis thaliana)
Construct: made in house; host or cells: E. coli BL21 (DE3) hemG, crude extract
measurement_notes: fluorescent Protoporphyrinogen Oxidase assay, crude extract
Type: biochemical
measurement_parameters: read-out: percentage inhibition
recorded_endpoint: inhibition at 100 ppm (%)

1. C#CCN1C(=O)C(F)(F)Oc2cc(F)c(-n3c(=O)n(C)c(=S)n(C)c3=O)cc21 [Herbicide B, trifludimoxazin] : 100
2. CCOC(=O)COc1ncccc1Oc1cc(-n2c(=O)cc(C(F)(F)F)n(C)c2=O)c(F)cc1Cl [Herbicide A, epyrifenacil] : 100
3. CCOC(=O)C1(C)CC(c2cc(-n3c(=O)cc(C(F)(F)F)n(C)c3=O)c(F)cc2Cl)=NO1 (stereo not drawn) [Herbicide C] : 93
